Each record here notes measured activity at 100 µM.
- Test system: Aβ1-42
- method-summary: Aβ1-42 content in conditioned medium of primary cortico-hippocampal neuron cultures from Tg2576 mice (ELISA; primary and secondary dose-response screening)
- Format: cell-based, mouse
- particulars: Mus musculus, Neuron, 24 h, primary screening, drug 100 μM, Tg2576 neuron cultures; table sorted by Aβ1-42; read-out: Ab1-42 (% of ctl)
Structures can show the parent of a compound that is named as a salt.
assay-endpoint: activity at 100 µM (%)

{"compound": "CCCc1nc(C(C)(C)O)c(C(=O)OCc2oc(=O)oc2C)n1Cc1ccc(-c2ccccc2-c2nnn[nH]2)cc1", "system-name": "Aβ1-42", "output-unit": "%", "numeric-result": 70.7}
{"compound": "COc1ccc(C2C(=O)c3ccccc3C2=O)cc1", "system-name": "Aβ1-42", "output-unit": "%", "numeric-result": 103}
{"compound": "O=c1oc2ccccc2c(O)c1Cc1c(O)c2ccccc2oc1=O", "system-name": "Aβ1-42", "output-unit": "%", "numeric-result": 54}
{"compound": "O=c1cc(-c2ccccc2)oc2cc(O)cc(O)c12", "system-name": "Aβ1-42", "output-unit": "%", "numeric-result": 83.4}
{"compound": "CC(C)(Sc1cc(C(C)(C)C)c(O)c(C(C)(C)C)c1)Sc1cc(C(C)(C)C)c(O)c(C(C)(C)C)c1", "system-name": "Aβ1-42", "output-unit": "%", "numeric-result": 136}
{"compound": "O=C1c2ccccc2C(=O)C1c1ccccc1", "system-name": "Aβ1-42", "output-unit": "%", "numeric-result": 105}
{"compound": "CC(=O)CCCCn1c(=O)c2c(ncn2C)n(C)c1=O", "system-name": "Aβ1-42", "output-unit": "%", "numeric-result": 109}
{"compound": "Nc1nc(N)c2nc(-c3ccccc3)c(N)nc2n1", "system-name": "Aβ1-42", "output-unit": "%", "numeric-result": 64.2}
{"compound": "CC(NCCC(c1ccccc1)c1ccccc1)c1ccccc1 (stereo not drawn) [Fendiline Hydrochloride]", "system-name": "Aβ1-42", "output-unit": "%", "numeric-result": 26.2}

---

# Ab1-42 (% of ctl) per entry
- System: Aβ1-42
- method-summary: Aβ1-42 content in conditioned medium of primary cortico-hippocampal neuron cultures from Tg2576 mice (ELISA; primary and secondary dose-response screening)
- Assay type: cell-based, mouse
- particulars: primary screening, drug 100 μM, Tg2576 neuron cultures; table sorted by Aβ1-42
assay-endpoint: Ab1-42 (% of ctl)

{"compound": "NC(N)=NC(=O)c1nc(Cl)c(N2CCCCCC2)nc1N [N,N-Hexamethyleneamiloride]", "result": "26.2 % of ctl"}
{"compound": "O=C(O)C(O)C(O)C(=O)O.OCc1cccnc1 (stereo not shown) [Nicotinyl Tartrate]", "result": "73.8 % of ctl"}
{"compound": "CC(C)NCC(O)COc1cccc2ccccc12.Cl (racemic) [Propranolol Hydrochloride (+/−)]", "result": "93.4 % of ctl"}
{"compound": "COc1ccc2c(c1OC)C(=O)O[C@H]2[C@@H]1c2cc3c(cc2CCN1C)OCO3 [1S,9R-Beta-HYDRASTINE]", "result": "123.6 % of ctl"}
{"compound": "CC(C)c1c(C(=O)Nc2ccccc2)c(-c2ccccc2)c(-c2ccc(F)cc2)n1CC[C@@H](O)C[C@@H](O)CC(=O)[O-].CC(C)c1c(C(=O)Nc2ccccc2)c(-c2ccccc2)c(-c2ccc(F)cc2)n1CC[C@@H](O)C[C@@H](O)CC(=O)[O-].[Ca+2] [Atorvastatin Calcium]", "result": "76.9 % of ctl"}
{"compound": "COc1cc2nc(N(C)CCCNC(=O)C3CCCO3)nc(N)c2cc1OC (stereo not shown) [Alfluzosin]", "result": "66.9 % of ctl"}
{"compound": "NS(=O)(=O)c1cc2c(cc1C(F)(F)F)NC(Cc1ccccc1)NS2(=O)=O (stereo not shown) [Bendrofumethiazide]", "result": "58.4 % of ctl"}

---

Let's look at some compounds and their measured Ab1-42 (% of ctl).
- Test system: Aβ1-42
- method-summary: Aβ1-42 content in conditioned medium of primary cortico-hippocampal neuron cultures from Tg2576 mice (ELISA; primary and secondary dose-response screening)
- Assay type: cell-based, mouse
- particulars: primary screening, drug 100 μM, Tg2576 neuron cultures; table sorted by Aβ1-42
assay-endpoint: Ab1-42 (% of ctl)

{"compound": "CCOc1ccccc1OCCN[C@H](C)Cc1ccc(OC)c(S(N)(=O)=O)c1.Cl [Tamsulosin Hydrchloride]", "system-name": "Aβ1-42", "result": "91.8 % of ctl"}
{"compound": "CC[C@@H](C)C(=O)O[C@H]1[C@H](O)[C@H]2[C@@H](CN3C[C@@H](C)CC[C@H]3[C@@]2(C)O)[C@@H]2C[C@]34O[C@]5(O)[C@@H](OC(=O)[C@](C)(O)[C@@H](C)O)CC[C@@]3(C)[C@@H]5[C@@H](OC(C)=O)[C@@H](OC(C)=O)[C@H]4[C@@]21O (stereo in doubt)", "system-name": "Aβ1-42", "result": "93.3 % of ctl"}
{"compound": "CC(C)(Oc1ccc(CCNC(=O)c2ccc(Cl)cc2)cc1)C(=O)O [BENZAFIBRATE]", "system-name": "Aβ1-42", "result": "99.5 % of ctl"}
{"compound": "CC(C)NCC(O)COc1cccc2ccccc12.Cl (stereo not drawn) [Propranolol Hydrochloride (−)]", "system-name": "Aβ1-42", "result": "32.8 % of ctl"}
{"compound": "CC[C@@H](C)C(=O)O[C@H]1[C@H](O)[C@H]2[C@@H](CN3C[C@@H](C)CC[C@H]3[C@@]2(C)O)[C@@H]2C[C@]34O[C@]5(O)[C@@H](OC(=O)[C@@](C)(O)CC)CC[C@@]3(C)[C@@H]5[C@@H](OC(C)=O)[C@@H](OC(C)=O)[C@H]4[C@@]21O", "system-name": "Aβ1-42", "result": "104.6 % of ctl"}

---

- System: primary cortico-hippocampal neuron cultures
- method-summary: MTT in primary screening
- particulars: Primary Screening; table sorted by Aβ1-40
Structures can show the parent of a compound that is named as a salt.

{"compound": "CCOC(=O)[C@H](CCc1ccccc1)N[C@@H](C)C(=O)N1[C@H](C(=O)O)C[C@@H]2CCC[C@@H]21 [Ramipril]", "MTT (% of ctl)": "102.9 % of ctl"}
{"compound": "COc1cc2nc(N3CCN(C(=O)c4ccco4)CC3)nc(N)c2cc1OC [Prazosin Hydrochloride]", "MTT (% of ctl)": "99.9 % of ctl"}
{"compound": "CCCC(=O)Nc1ncnc2c1ncn2[C@@H]1O[C@@H]2COP(=O)(O)O[C@H]2[C@H]1OC(=O)CCC [Bucladesine]", "MTT (% of ctl)": "97.2 % of ctl"}
{"compound": "CC(=O)Nc1ccc(OCC(O)CNC(C)C)cc1 (stereo not shown) [Practolol]", "MTT (% of ctl)": "101.3 % of ctl"}
{"compound": "CC(C)(C)NC[C@H](O)COc1nsnc1N1CCOCC1 [Timolol Maleate]", "MTT (% of ctl)": "99.2 % of ctl"}
{"compound": "CNCCc1ccccn1 [Betahistine Hydrochloride]", "MTT (% of ctl)": "107.1 % of ctl"}
{"compound": "COC(=O)C1=C(C)NC(C)=C(C(=O)OCCN(C)Cc2ccccc2)C1c1cccc([N+](=O)[O-])c1 (stereo not shown) [Nicardipine Hydrochloride]", "MTT (% of ctl)": "52.4 % of ctl"}
{"compound": "C#CCN(C)Cc1ccccc1 [Pargyline Hydrochloride]", "MTT (% of ctl)": "86.4 % of ctl"}
{"compound": "CC1=NS(=O)(=O)c2cc(Cl)ccc2N1 [Diazoxide]", "MTT (% of ctl)": "97.8 % of ctl"}
{"compound": "NC(N)=O [Urea]", "MTT (% of ctl)": "96.7 % of ctl"}
{"compound": "CCCCNc1cc(C(=O)O)cc(S(N)(=O)=O)c1Oc1ccccc1 [Bumetanide]", "MTT (% of ctl)": "95.3 % of ctl"}
{"compound": "OCCN(CCO)c1nc(N2CCCCC2)c2nc(N(CCO)CCO)nc(N3CCCCC3)c2n1 [Dipyridamole]", "MTT (% of ctl)": "102.7 % of ctl"}
{"compound": "CC(C)NCC(O)COc1ccc(CC(N)=O)cc1 (stereo not shown) [Atenolol]", "MTT (% of ctl)": "97.3 % of ctl"}
{"compound": "CC(=O)Nc1nnc(S(N)(=O)=O)s1 [Acetazolamide]", "MTT (% of ctl)": "78.0 % of ctl"}
{"compound": "COc1ccc2c(c1OC)C(=O)O[C@H]2[C@@H]1c2cc3c(cc2CCN1C)OCO3 [1S,9R-Beta-HYDRASTINE]", "MTT (% of ctl)": "101.1 % of ctl"}
{"compound": "CCC(C)(C)C(=O)O[C@H]1C[C@@H](C)C=C2C=C[C@H](C)[C@H](CC[C@@H]3C[C@@H](O)CC(=O)O3)[C@H]21 [Simvastatin]", "MTT (% of ctl)": "93.4 % of ctl"}
{"compound": "CC(C)NCC(O)c1ccc2ccccc2c1 (stereo not shown) [Pronetalol Hydrochloride]", "MTT (% of ctl)": "88.8 % of ctl"}
{"compound": "COc1cc2nc(N(C)CCCNC(=O)C3CCCO3)nc(N)c2cc1OC (stereo not shown) [Alfluzosin]", "MTT (% of ctl)": "91.8 % of ctl"}
{"compound": "CC(=O)CC(c1ccccc1)c1c(O)c2ccccc2oc1=O (stereo not shown) [Warfarin]", "MTT (% of ctl)": "100.1 % of ctl"}
